Measured values drawn from ChEMBL document CHEMBL5303573 for this set.

assay-info: The drug is tested on Bacteroides fragilis strain: HMW610 for biotransformation. The drug concentrations were measured before and after a 12-h incubation by liquid-chromatography-coupled mass spectrometry (LC–MS)
condition-notes: 2 µM
endpoint-label: Bacterial Biotransformation

[[record]]
molecule = "Nc1nc(NC2CC2)c2ncn([C@H]3C=C[C@@H](CO)C3)c2n1.Nc1nc(NC2CC2)c2ncn([C@H]3C=C[C@@H](CO)C3)c2n1.O=S(=O)(O)O [ABACAVIR SULFATE]"
reported_value = "Compound NOT metabolized"

[[record]]
molecule = "COc1ccccc1OCC(O)COC(N)=O (centres undefined)"
reported_value = "Compound NOT metabolized"

[[record]]
molecule = "CC(C)(C(=O)O)c1ccc(C(O)CCCN2CCC(C(O)(c3ccccc3)c3ccccc3)CC2)cc1 (centres undefined) [FEXOFENADINE]"
reported_value = "Compound NOT metabolized"

